molecular target: Replicase polyprotein 1ab (Severe acute respiratory syndrome coronavirus 2, UniProt P0DTD1); assay: Inhibition of his tagged SARS-CoV-2 nsp12 in HEK-293T cells cotransfected with pCoV-GLuc incubated for 24 hrs in the presence of coelenterazine-h by Gaussia luciferase reporter assay; assay type: cell-based
pEC50: −log10 of the molar value.
Readout name: pEC50

INSERT INTO results (molecule, readout_name, measurement) VALUES
  ('CSCC[C@H](NC(=O)OC(C)(C)C)C(=O)Nc1nc(N)ccc1/N=N/c1ccccc1', 'pEC50', 5.88),
  ('CC(C)(C)OC(=O)N1CCC[C@H]1C(=O)Nc1nc(N)ccc1/N=N/c1ccccc1', 'pEC50', 5.95),
  ('Nc1ccc(/N=N/c2ccccc2)c(NC(=O)[C@@H](N)Cc2c[nH]c3ccccc23)n1', 'pEC50', 5.79),
  ('Cl.Nc1ccc(/N=N/c2ccccc2)c(N)n1 [PHENAZOPYRIDINE HYDROCHLORIDE]', 'pEC50', 5.13),
  ('C[C@H](NC(=O)OC(C)(C)C)C(=O)Nc1nc(N)ccc1/N=N/c1ccccc1', 'pEC50', 5.85);

src = ChEMBL document CHEMBL6109081
